apparent KD of MS2 coat protein values, listed per item
Tested on: MS2 coat protein
Assay: apparent KD of MS2 coat protein; higher = weaker reporter binding
Conditions: Eterna round: R107; input ligand: arginine 13.2 mM
Use nM as the unit, but write only the number.

# annotated cases, reported apparent KD of MS2 coat protein shown
[[record]]
sequence_chain = "AACUGAAGCACCUUAUGCGGCGGCAAAACCCGAGGACCGGUACGGCCGCCACUCGAGUCGCAACAUGAGGAUCACCCAUGUGUAU [theeternabot_exclusion_MS2_Trp_A_30]"
study_system = "MS2 coat protein"
reported_measurement = 32.5

[[record]]
sequence_chain = "GACAUGAGGAUCGAUACCAGCGACAUGAGGAUCACAUGAGGAUCACCCAUGUGUAGUAUACGCCCUUGGCAGCGAACAUGAGGAU [Same State Theophylline B 3]"
study_system = "MS2 coat protein"
reported_measurement = 74.3

[[record]]
sequence_chain = "ACACAUGAGGAUCACCCAUGUUGAGGAACACGAGGACCGGUACGGCCGCCACUCGACACAUGAGGAUCACCCAUGUGAUCACCCA [Same State Tryptophan A 2]"
study_system = "MS2 coat protein"
reported_measurement = 49.7

[[record]]
sequence_chain = "UGAUGGUUCGGAAGGAGCGUGUAAGAACAAGAACAUGAGGAUCACCCAUGUAUUAAUUUAACACAGGUAGGUCGCCGGGUUAUUG [11.J]"
study_system = "MS2 coat protein"
reported_measurement = 20.9

[[record]]
sequence_chain = "AAUAAUAAGGCGGCCGCCACUAAACAUGAGGAUCACCCAUGUCUCGAGCGCAUACAUAAGGGAUGUAGGACCGGGCCAAUAAUAA [Exclusion - Tryptophan B (Freestyle 1)]"
study_system = "MS2 coat protein"
reported_measurement = 19


sequence CUAGACUGUGCGGCCGCCACUGGCUCAUCCUGCAUUACAUGAGGAUCACCCAUGUUGCGGCCUCCCAGGACCGGGCAUAGUCUGC [Riinzaa] , apparent KD of MS2 coat protein observed: 91

sequence ACCGCAUCCGUAUAGGAUGCGGCCCAUGAAGGAGCGUGGGAAACCACAGGUAGGUCGCAUGGAAAACAUGAGGAUCACCCAUGUG [Alien] , apparent KD of MS2 coat protein observed: 114

sequence GGUUGAAACUGAAGGAGCGAGAUCACAAGAUUGGGUCUAACAUGAGGAUCACCCAUGUAAUCUCAGGUAGGUCGCAGUGACCAAA [Exclusion Arginine B GF 13] , apparent KD of MS2 coat protein observed: 28

###

Tested on: MS2 coat protein
Assay: apparent KD of MS2 coat protein; higher = weaker reporter binding
Details: Eterna round: R107; input ligand: tryptophan 2.4 mM
apparent KD of MS2 coat protein values, listed per item
Note: a bare number is incomplete; add the unit.

[[record]]
sequence_chain = "AGCACUGUGACGGCCGCCACUAUAUAUAGGGUGGUCAGGUUCAUAAUACAUGAGGAUCACCCAUGUAGGACCGGGUCUCAGUGCA [Omei Trp Exc B A v4]"
study_system = "MS2 coat protein"
reported_measurement = "14 nM"

[[record]]
sequence_chain = "AAGAAAACAUGAGCAAAGCUCAUGUGCGAAGGAGCGGCGGAAACGCCAGGUAGGUCGCGCACAUGAGCAUCAGCCAUGUGUAUCA [Omei Arginine B SS A v3]"
study_system = "MS2 coat protein"
reported_measurement = "19.4 nM"

[[record]]
sequence_chain = "GCUUGCUUGUAAGGUUCUGUCCGGCGUCGUCGAGGACCGGUACGGCCGCCACUCGCGCGUUUACAUGAGGAUCACCCAUGUCAUG [theeternabot_exclusion_MS2_Trp_A_49]"
study_system = "MS2 coat protein"
reported_measurement = "47.5 nM"


Reported MS2 coat protein apparent KD of MS2 coat protein for item CGUACAUGAGGAUCACCCAUGUUACAUGAUACCAGACAUGAAAAUGUCCCUUGGCAGCAUGGCGCUGAUAGGGCGGGAAACCCGA [Zabovresky] was 19.7 nM

Reported MS2 coat protein apparent KD of MS2 coat protein for item CCGGUUAGGACGGCCGCCACUGUGGCUACGGUACAUGAGGAUCACCCAUGUUUGUGGUUGAUCUACAGGACCGGGUCCUGACACG [Eronri] was 247 nM
